- measured.target: UniProt Q15858
- experiment.summary: in-vitro Nav 1.7 PX (IC50)
- Type: cell-based
- assay.setup: in-vitro Nav 1.7 PX data
Field: IC50. Provide a value for each of the compounds that follow.
Field format: number, assumed nM, no unit text.

IC50 lookup needed for COc1cc(-c2cccc(C(F)(F)F)c2)ccc1-n1c(=O)ccc2cc(S(=O)(=O)Nc3ncccn3)c(F)cc21 , thanks.
38

IC50 lookup needed for CCOc1cccc(-c2cc(OC)c(-n3c(=O)ccc4cc(S(=O)(=O)Nc5ccon5)ccc43)cc2F)c1 , thanks.
25

IC50 lookup needed for COc1cc(-c2ccc(Cl)cc2F)c(F)cc1-n1c(=O)ccc2cc(S(=O)(=O)Nc3ccon3)ccc21 , thanks.
20

IC50 lookup needed for COc1cc(-c2cc(OC)c(-n3c(=O)ccc4cc(S(=O)(=O)Nc5ncccn5)ccc43)cc2F)ccc1F , thanks.
76

IC50 lookup needed for CC(C#N)Oc1cc(-c2cc(F)cc(F)c2)c(F)cc1-n1c(=O)ccc2cc(S(=O)(=O)Nc3ccon3)ccc21 (stereo not shown) , thanks.
458

IC50 lookup needed for COc1nc(-c2cc(F)cc(F)c2)c(Cl)cc1-n1c(=O)ccc2cc(S(=O)(=O)Nc3ccon3)ccc21 (atropisomer, axis not shown; (M)) [Example 666] , thanks.
1060

IC50 lookup needed for COc1cc(-c2cc(Cl)cc(Cl)c2)ccc1-n1c(=O)ccc2cc(S(=O)(=O)Nc3ccon3)ccc21 , thanks.
9

###

- measured.target: Nav 1.7 (Homo sapiens (Human), UniProt Q15858)
- Sequence (Q15858 whole entry): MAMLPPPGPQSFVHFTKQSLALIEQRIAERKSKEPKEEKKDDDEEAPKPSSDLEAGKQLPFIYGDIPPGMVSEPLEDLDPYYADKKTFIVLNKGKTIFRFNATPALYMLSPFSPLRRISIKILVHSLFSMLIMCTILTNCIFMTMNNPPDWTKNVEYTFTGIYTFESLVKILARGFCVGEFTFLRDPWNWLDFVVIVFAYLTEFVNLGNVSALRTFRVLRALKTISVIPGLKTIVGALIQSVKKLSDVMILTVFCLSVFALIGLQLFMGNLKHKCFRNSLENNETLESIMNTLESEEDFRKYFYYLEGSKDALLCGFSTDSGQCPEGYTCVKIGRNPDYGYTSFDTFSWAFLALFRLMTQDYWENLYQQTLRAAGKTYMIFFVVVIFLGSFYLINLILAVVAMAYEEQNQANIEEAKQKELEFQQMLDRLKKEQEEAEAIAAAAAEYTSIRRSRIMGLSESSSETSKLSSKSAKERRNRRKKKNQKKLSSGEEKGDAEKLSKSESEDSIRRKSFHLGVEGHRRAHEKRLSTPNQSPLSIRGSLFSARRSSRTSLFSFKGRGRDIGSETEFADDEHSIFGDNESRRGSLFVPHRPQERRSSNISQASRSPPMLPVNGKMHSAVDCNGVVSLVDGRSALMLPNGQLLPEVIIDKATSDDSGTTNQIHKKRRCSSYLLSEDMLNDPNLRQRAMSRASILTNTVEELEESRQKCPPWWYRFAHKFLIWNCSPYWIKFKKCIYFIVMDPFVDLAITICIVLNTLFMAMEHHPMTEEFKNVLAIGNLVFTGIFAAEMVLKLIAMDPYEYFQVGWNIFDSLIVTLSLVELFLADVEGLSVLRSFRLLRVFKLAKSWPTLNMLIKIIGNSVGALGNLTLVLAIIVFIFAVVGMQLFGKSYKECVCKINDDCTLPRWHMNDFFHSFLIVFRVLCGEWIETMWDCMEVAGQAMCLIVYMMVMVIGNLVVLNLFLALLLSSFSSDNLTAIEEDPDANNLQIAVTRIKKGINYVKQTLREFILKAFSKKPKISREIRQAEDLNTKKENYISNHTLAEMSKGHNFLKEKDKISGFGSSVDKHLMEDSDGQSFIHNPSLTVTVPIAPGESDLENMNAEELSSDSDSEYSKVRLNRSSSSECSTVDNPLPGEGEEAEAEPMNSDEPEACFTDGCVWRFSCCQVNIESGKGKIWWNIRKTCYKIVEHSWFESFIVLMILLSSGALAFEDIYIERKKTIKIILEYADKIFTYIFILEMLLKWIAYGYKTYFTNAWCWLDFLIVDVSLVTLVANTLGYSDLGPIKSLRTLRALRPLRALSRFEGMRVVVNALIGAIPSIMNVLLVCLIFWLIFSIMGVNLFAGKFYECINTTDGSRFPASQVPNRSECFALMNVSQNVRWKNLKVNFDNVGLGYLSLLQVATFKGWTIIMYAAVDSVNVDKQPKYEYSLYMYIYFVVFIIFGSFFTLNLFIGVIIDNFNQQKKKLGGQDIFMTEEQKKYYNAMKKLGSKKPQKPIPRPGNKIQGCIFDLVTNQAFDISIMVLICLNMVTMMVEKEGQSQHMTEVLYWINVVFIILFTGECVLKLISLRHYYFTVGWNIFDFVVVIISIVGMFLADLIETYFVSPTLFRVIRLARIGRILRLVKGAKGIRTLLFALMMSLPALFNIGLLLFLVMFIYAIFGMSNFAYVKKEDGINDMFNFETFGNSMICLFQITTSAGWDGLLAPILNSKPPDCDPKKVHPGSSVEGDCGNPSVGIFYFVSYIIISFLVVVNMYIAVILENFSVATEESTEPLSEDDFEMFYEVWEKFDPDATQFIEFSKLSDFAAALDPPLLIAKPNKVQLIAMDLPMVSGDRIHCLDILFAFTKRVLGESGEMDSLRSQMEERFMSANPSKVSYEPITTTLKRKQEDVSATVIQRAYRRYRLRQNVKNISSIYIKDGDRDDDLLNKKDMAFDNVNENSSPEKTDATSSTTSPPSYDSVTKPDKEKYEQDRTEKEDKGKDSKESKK
- experiment.summary: in-vitro Nav 1.7 PX (IC50)
- Format: cell-based
// assign criterion met if IC50 falls strictly below 200 nM, else criterion not met (ties count as criterion not met)

Just wondering, is IC50 of COc1cc(Br)c(F)cc1-n1c(=O)ccc2cc(S(=O)(=O)Nc3cc(OC4CCC4)ncn3)ccc21 (atropisomer, axis not shown; (P)) [Example 1188] below 200 nM?
criterion not met

Just wondering, is IC50 of O=c1ccc2cc(S(=O)(=O)Nc3ccon3)ccc2n1-c1ccc(-c2cccc(F)c2)cc1CC(O)CO (racemic) [Example 327] below 200 nM?
criterion not met

Just wondering, is IC50 of COc1ccc(-c2cccc(F)c2)cc1-n1c(=O)ccc2cc(S(=O)(=O)Nc3ccon3)ccc21 (atropisomer, axis not shown; (M)) [Example 484] below 200 nM?
criterion not met

Just wondering, is IC50 of COc1cc(-c2cc(F)cc(Cl)c2)c(Cl)cc1-n1c(=O)ccc2cc(S(=O)(=O)Nc3ccon3)ccc21 (atropisomer, axis not shown; (P)) [Example 461] below 200 nM?
criterion met

Just wondering, is IC50 of COc1cc(-c2cccc(OC(C)C)c2)ccc1-n1c(=O)ccc2cc(S(=O)(=O)Nc3cccnn3)ccc21 (atropisomer, axis not shown; (P)) [Example 1207] below 200 nM?
criterion met

Just wondering, is IC50 of COc1cc(-c2cccc(OC(F)F)c2)c(F)cc1-n1c(=O)ccc2cc(S(=O)(=O)Nc3cc(C)ncn3)ccc21 (atropisomer, axis not shown; (P)) [Example 1173] below 200 nM?
criterion met

Just wondering, is IC50 of COc1cc(-c2ccc(Cl)c(C)c2)ccc1-n1c(=O)cnc2cc(S(=O)(=O)Nc3ccon3)ccc21 [Example 1195] below 200 nM?
criterion met

Just wondering, is IC50 of COc1ccc(-c2cc(F)cnc2OC)cc1-n1c(=O)ccc2cc(S(=O)(=O)Nc3ccon3)ccc21 [Example 488] below 200 nM?
criterion not met

Just wondering, is IC50 of COc1cc(-c2cc(F)cc(Cl)c2)ccc1-n1c(=O)ccc2cc(S(=O)(=O)Nc3ccon3)ccc21 (atropisomer, axis not shown; (P)) [Example 430] below 200 nM?
criterion met

Just wondering, is IC50 of COc1cc(-c2ccc(F)c(Cl)c2)ccc1-n1c(=O)ccc2cc(S(=O)(=O)Nc3ccon3)ccc21 (atropisomer, axis not shown; (M)) [Example 577] below 200 nM?
criterion not met

Just wondering, is IC50 of COc1ccccc1-n1c(=O)ccc2cc(S(=O)(=O)Nc3ccon3)ccc21 [Example 1154] below 200 nM?
criterion not met

Just wondering, is IC50 of CCCOc1cc(NS(=O)(=O)c2ccc3c(ccc(=O)n3-c3cc(F)c(Br)cc3OC)c2)ncn1 (atropisomer, axis not shown; (P)) [Example 1186] below 200 nM?
criterion not met

Just wondering, is IC50 of COc1cc(C#CC2(F)CCCC2)c(F)cc1-n1c(=O)ccc2cc(S(=O)(=O)Nc3cccnn3)ccc21 (atropisomer, axis not shown; (P)) [Example 1238] below 200 nM?
criterion met

Just wondering, is IC50 of O=c1ccc2cc(S(=O)(=O)Nc3ccon3)ccc2n1-c1ccc(C(F)(F)F)cc1-c1cn[nH]c1 [Example 346] below 200 nM?
criterion not met

Just wondering, is IC50 of COc1cc(-c2ccc(-n3c(=O)cnc4cc(S(=O)(=O)Nc5ccon5)ccc43)c(OC)c2)ccc1C [Example 1197] below 200 nM?
criterion met

Just wondering, is IC50 of COc1cc(-c2ccc(F)c(C)c2)c(F)cc1-n1c(=O)cnc2cc(S(=O)(=O)Nc3ccon3)ccc21 [Example 1194] below 200 nM?
criterion met

Just wondering, is IC50 of O=c1ccc2cc(S(=O)(=O)Nc3ccon3)ccc2n1-c1ccc(C(F)(F)F)cc1-c1cn[nH]c1 [Example 347] below 200 nM?
criterion not met

Just wondering, is IC50 of COc1cc(-c2ccc(Cl)c(F)c2)ccc1-n1c(=O)ccc2cc(S(=O)(=O)Nc3ccon3)ccc21 (atropisomer, axis not shown; (P)) [Example 580] below 200 nM?
criterion met

Just wondering, is IC50 of COc1cc(-c2ccc(C(F)(F)F)cc2)c(F)cc1-n1c(=O)ccc2cc(S(=O)(=O)Nc3ncco3)ccc21 (atropisomer, axis not shown; (P)) [Example 636] below 200 nM?
criterion met

Just wondering, is IC50 of COc1cc(-c2cccc(C(F)(F)F)c2)c(Cl)cc1-n1c(=O)ccc2cc(S(=O)(=O)Nc3ccon3)ccc21 (atropisomer, axis not shown; (P)) [Example 533] below 200 nM?
criterion met

Just wondering, is IC50 of Cc1cc(-c2cccc(F)c2)c(F)cc1-n1c(=O)ccc2cc(S(=O)(=O)Nc3ccon3)ccc21 (atropisomer, axis not shown; (P)) [Example 390] below 200 nM?
criterion met

Just wondering, is IC50 of COc1cc(-c2cccc(F)c2)c(Cl)cc1-n1c(=O)ccc2cc(S(=O)(=O)Nc3ccon3)c(F)cc21 (atropisomer, axis not shown; (P)) [Example 545] below 200 nM?
criterion met

Just wondering, is IC50 of COc1ccc(-c2cncc(F)c2)cc1-n1c(=O)ccc2cc(S(=O)(=O)Nc3ccon3)ccc21 [Example 485] below 200 nM?
criterion not met

Just wondering, is IC50 of COc1ccc(-c2cccc(F)c2)cc1-n1c(=O)ccc2cc(S(=O)(=O)Nc3ccon3)ccc21 (atropisomer, axis not shown; (P)) [Example 483] below 200 nM?
criterion met

###

- measured.target: UniProt Q15858
- experiment.summary: in-vitro Nav 1.7 PX (IC50)
- Format: cell-based
- assay.setup: in-vitro Nav 1.7 PX data
// assign satisfied if IC50 falls strictly below 80 nM, else not satisfied (ties count as not satisfied)

Just wondering, is IC50 of COc1ccc(Cl)cc1-c1cc(OC)c(-n2c(=O)ccc3cc(S(=O)(=O)Nc4ccon4)ccc32)cc1F below 80 nM?
satisfied

Just wondering, is IC50 of COc1cc(-c2ccc(C)c(F)c2)c(F)cc1-n1c(=O)ccc2cc(S(=O)(=O)Nc3ccnc(C)n3)ccc21 below 80 nM?
not satisfied

Just wondering, is IC50 of COc1cccc(-c2nc(OC)c(-n3c(=O)ccc4cc(S(=O)(=O)Nc5ccon5)ccc43)cc2Cl)c1 [Example 1092] below 80 nM?
satisfied

Just wondering, is IC50 of COc1cc(-c2ccc(Cl)c(C)c2)c(F)cc1-n1c(=O)ccc2cc(S(=O)(=O)Nc3cc(C)on3)ccc21 below 80 nM?
not satisfied

Just wondering, is IC50 of COc1cc(-c2ccc(C(F)(F)F)cc2)c(F)cc1-n1c(=O)ccc2cc(S(=O)(=O)Nc3ccnc(C)n3)ccc21 below 80 nM?
satisfied

Just wondering, is IC50 of COc1cc(-c2ccc(C)c(C)c2)c(F)cc1-n1c(=O)ccc2cc(S(=O)(=O)Nc3ccon3)ccc21 below 80 nM?
satisfied

###

Field: pIC50. Provide a value for each of the compounds that follow.
- measured.target: Nav 1.7 (Homo sapiens (Human))
- experiment.summary: in-vitro Nav 1.7 PX (IC50)
- Format: cell-based
- assay.setup: in-vitro Nav 1.7 PX data
Reminder that pIC50 is minus the log10 of a molar concentration.

Report pIC50 for COc1cc(-c2cccc(C(F)(F)F)c2)ccc1-n1c(=O)ccc2cc(S(=O)(=O)Nc3cnc(C)cn3)ccc21 tested on Nav 1.7 (Homo sapiens (Human)).
5.91

Report pIC50 for COc1ccc(-c2cccc(Cl)c2F)cc1-n1c(=O)ccc2cc(S(=O)(=O)Nc3ccon3)ccc21 tested on Nav 1.7 (Homo sapiens (Human)).
7.52

Report pIC50 for COc1cc(-c2cc(C)cnc2OC)c(F)cc1-n1c(=O)ccc2cc(S(=O)(=O)Nc3ccon3)ccc21 tested on Nav 1.7 (Homo sapiens (Human)).
6.82

Report pIC50 for COc1cc(-c2cc(C)ccc2F)c(C)cc1-n1c(=O)ccc2cc(S(=O)(=O)Nc3ncccn3)ccc21 tested on Nav 1.7 (Homo sapiens (Human)).
7.62

Report pIC50 for COc1cc(C[C@H]2CCCCO2)c(F)cc1-n1c(=O)ccc2cc(S(=O)(=O)Nc3ccon3)ccc21 tested on Nav 1.7 (Homo sapiens (Human)).
5.65

Report pIC50 for COc1nc(OCC2(C)CC2)c(Cl)cc1-n1c(=O)ccc2cc(S(=O)(=O)Nc3ccon3)ccc21 tested on Nav 1.7 (Homo sapiens (Human)).
6.34

Report pIC50 for COc1cc(-c2ccc(F)cc2)c(F)cc1-n1c(=O)ccc2cc(S(=O)(=O)Nc3ncco3)ccc21 tested on Nav 1.7 (Homo sapiens (Human)).
7.28
